- Target Under Test: UniProt P22001
- Sequence (P22001 whole entry): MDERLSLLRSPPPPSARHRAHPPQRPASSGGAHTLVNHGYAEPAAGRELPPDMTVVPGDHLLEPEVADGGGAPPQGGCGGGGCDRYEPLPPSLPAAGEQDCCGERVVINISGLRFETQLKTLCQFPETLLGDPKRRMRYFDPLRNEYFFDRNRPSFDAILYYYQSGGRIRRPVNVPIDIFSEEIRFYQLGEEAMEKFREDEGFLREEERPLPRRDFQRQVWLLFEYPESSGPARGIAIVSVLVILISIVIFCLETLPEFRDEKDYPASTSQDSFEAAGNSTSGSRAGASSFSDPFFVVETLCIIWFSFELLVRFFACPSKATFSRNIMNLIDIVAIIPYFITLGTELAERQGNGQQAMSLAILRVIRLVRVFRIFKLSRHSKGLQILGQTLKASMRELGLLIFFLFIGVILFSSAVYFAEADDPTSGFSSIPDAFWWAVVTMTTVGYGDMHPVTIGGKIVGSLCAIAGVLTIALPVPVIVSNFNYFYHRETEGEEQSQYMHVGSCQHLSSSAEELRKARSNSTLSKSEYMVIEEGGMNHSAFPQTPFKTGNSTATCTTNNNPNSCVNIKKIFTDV
- Assay Notes: voltage-clamp of K+ currents in CHO-K1 cells expressing hKv1.3
- Measurement Conditions: inhibition measured at end of 1000 ms pulse, read-out: IC50 of K+ current inhibition, hKv1.3
Measurement Label: IC50
Give your result as the value with the unit written after it.

Consider C/C(=C\C1C/C(=C/CCc2ccoc2)C(=O)O1)CCCc1ccoc1 (stereo not shown) . Its measured IC50 is 190 nM
